Target: Mitogen-activated protein kinase 15 (Homo sapiens)
Sequence (Q8TD08 whole entry): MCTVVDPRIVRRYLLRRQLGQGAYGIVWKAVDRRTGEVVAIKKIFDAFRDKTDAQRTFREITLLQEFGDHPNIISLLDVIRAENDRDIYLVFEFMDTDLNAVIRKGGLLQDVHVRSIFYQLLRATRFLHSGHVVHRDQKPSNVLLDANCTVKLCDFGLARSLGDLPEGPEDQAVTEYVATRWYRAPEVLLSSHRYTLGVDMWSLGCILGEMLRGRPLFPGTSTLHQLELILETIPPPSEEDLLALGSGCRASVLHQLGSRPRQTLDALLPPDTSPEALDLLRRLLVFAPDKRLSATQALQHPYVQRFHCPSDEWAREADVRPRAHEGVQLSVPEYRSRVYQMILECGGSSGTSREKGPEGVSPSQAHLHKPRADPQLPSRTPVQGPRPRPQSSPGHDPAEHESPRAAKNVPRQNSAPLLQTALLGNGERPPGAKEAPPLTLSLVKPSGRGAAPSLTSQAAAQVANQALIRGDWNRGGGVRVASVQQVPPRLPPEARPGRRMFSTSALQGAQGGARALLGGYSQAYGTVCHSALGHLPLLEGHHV
Test: Inhibition of Flag/His-tagged human MAPK15 incubated for 90 mins by TR-FRET assay
pKi: −log10 of the molar value.
measurement name: pKi

{"smiles notation": "CN1CC[C@H](c2c(O)cc(O)c3c(=O)cc(-c4ccccc4Cl)oc23)[C@H](O)C1", "endpoint result": 6.92}

----------
Biological target: Nuclear receptor subfamily 1 group I member 3 (Homo sapiens)
Sequence (Q14994 whole entry, the tested form may be a part): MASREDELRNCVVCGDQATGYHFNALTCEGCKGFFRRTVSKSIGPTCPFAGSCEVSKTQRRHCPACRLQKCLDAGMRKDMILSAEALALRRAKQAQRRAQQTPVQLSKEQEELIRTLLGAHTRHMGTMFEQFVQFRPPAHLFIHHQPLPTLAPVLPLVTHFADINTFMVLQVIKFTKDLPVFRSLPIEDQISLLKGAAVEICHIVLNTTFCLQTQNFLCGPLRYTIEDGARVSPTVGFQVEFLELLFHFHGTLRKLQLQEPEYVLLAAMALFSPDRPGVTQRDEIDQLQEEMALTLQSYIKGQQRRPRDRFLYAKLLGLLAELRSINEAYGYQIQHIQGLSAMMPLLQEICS
Assay: Inhibition of GST-tagged human CAR LBD incubated for 90 mins in presence of Cy5-PGC1-alpha by HTRF co-activator assay
# key: entry, value: IC50
measurement name: IC50 (nM)

{"molecule": "C[C@]12CC[C@@H](O)C[C@@H]1CC[C@@H]1[C@@H]2CC[C@]2(C)C=CC[C@@H]12", "measurement name": "IC50", "units text": "nM", "endpoint result": 250}
{"molecule": "Cc1cc(C)n2c1C=C1C=CC(CCC(=O)N3CCC(C(=O)Nc4ncc(SCc5ncc(C(C)(C)C)o5)s4)CC3)=[N+]1[B-]2(F)F", "measurement name": "IC50", "units text": "nM", "endpoint result": 224}
{"molecule": "CCOC(=O)Nc1ccc2c(c1)N(C(=O)CN(CC)CC)c1ccccc1CC2", "measurement name": "IC50", "units text": "nM", "endpoint result": 258}
{"molecule": "CC(C)(C)c1cnc(CSc2cnc(NC(=O)C3CCN(CC(=O)NCCOCCOCCOCCNc4cccc5c4C(=O)N(C4CCC(=O)NC4=O)C5=O)CC3)s2)o1 (centres undefined)", "measurement name": "IC50", "units text": "nM", "endpoint result": 6600}
